# System: Rat white adipocytes
# Test: Inhibition of the differentiation of adipocytes (Oil Red O)
# Format: cell-based
# Condition set: Rattus norvegicus, Adipocyte, 120 h, 100 nM test compound; 5 days; Oil Red O ABS550; control = 100%, blank = 0%; Table 3; read-out: Rate of Differentiation (%)
Endpoint name: activity at 0.1 µM (%)
Reply numerically in %, unit not repeated.

[
  {
    "Compound": "O=C(Nc1ccc(-c2ccc(-n3cccc3)cc2)cc1)c1cc([N+](=O)[O-])ccc1Cl [Example 186]",
    "Unit tag": "%",
    "activity at 0.1 µM": 56.3
  },
  {
    "Compound": "CCCCN(CCC)c1ccc(-c2ccc(NC(=O)c3cc([N+](=O)[O-])ccc3Cl)cc2)cc1 [Example 208]",
    "Unit tag": "%",
    "activity at 0.1 µM": 35.1
  }
]

Look up activity at 0.1 µM of O=C(Nc1ccc(N2CCN(C(=O)c3ccncc3)CC2)cc1)c1cc([N+](=O)[O-])ccc1Cl [Example 228] and report it.
17.5

State, in one line, measured activity at 0.1 µM of NCCc1ccc(NC(=O)c2cc([N+](=O)[O-])ccc2Cl)cc1 [Example 267]
47.3

Return activity at 0.1 µM (reported value) for this compound: CC(C)(C)OC(=O)Nc1ccc(-c2ccc(NC(=O)c3cc([N+](=O)[O-])ccc3Cl)cc2)cc1 [Example 87]
75.2

Tell me measured activity at 0.1 µM for O=C(Nc1ccc(NC(=S)Nc2ccncc2)cc1)c1cc([N+](=O)[O-])ccc1Cl [Example 259] please.
56.5

Identify measured activity at 0.1 µM corresponding to O=C(Nc1ccc(-c2ccc(NC(=O)c3cc([N+](=O)[O-])ccc3Cl)cc2)cc1)c1ccccc1 [Example 120]
79.8

Entry CNC(=S)Nc1ccc(-c2ccc(NC(=O)c3cc([N+](=O)[O-])ccc3Cl)cc2)cc1 [Example 236] needs its activity at 0.1 µM filled in; supply it.
47.1

Note activity at 0.1 µM for the compound shown: CC(=O)Nc1nc(-c2ccc(NC(=O)c3cc([N+](=O)[O-])ccc3Cl)cc2)cs1 [Example 265]
80.8

Read off the recorded activity at 0.1 µM for O=C(Nc1ccc([N+](=O)[O-])cn1)c1cc([N+](=O)[O-])ccc1Cl [Example 24]
59.1
